Molecular target: GPR120 (Homo sapiens, UniProt Q5NUL3)
Sequence (Q5NUL3 whole entry, species assumed): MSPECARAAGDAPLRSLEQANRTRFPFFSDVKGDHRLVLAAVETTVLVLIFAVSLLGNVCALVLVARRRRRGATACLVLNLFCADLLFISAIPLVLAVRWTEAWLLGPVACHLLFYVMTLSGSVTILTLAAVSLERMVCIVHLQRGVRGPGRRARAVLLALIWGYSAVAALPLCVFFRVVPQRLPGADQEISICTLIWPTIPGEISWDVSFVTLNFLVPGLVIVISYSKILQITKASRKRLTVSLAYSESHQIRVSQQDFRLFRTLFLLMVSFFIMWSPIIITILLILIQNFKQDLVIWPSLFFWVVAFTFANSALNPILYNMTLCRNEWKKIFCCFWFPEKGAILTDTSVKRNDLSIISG
Test: GPR120 Ca2+ flow assay in HEK293 cells stably transfecting the GPR120-Rluc gene
Type: cell-based
Design: expressed in transfected cells
Conditions: GPR120, Ca2+ flow, HEK293 GPR120-Rluc cells; read-out: pEC50 Ca2+ assay (converted)
Attribute: EC50
measured endpoint: EC50

{"columns": ["compound", "result"],
 "data": [
  ["Cc1cc(C)c(NS(=O)(=O)c2ccc(NCCCN3C(=O)c4cccc5c(N(C)C)ccc(c45)C3=O)cc2)c(C)c1", "6.31 µM"],
  ["COc1ccc(S(=O)(=O)Nc2c(C)cc(C)cc2C)cc1 [GSK137647A, reference compound]", "0.0447 µM"],
  ["Cc1cc(C)c(NS(=O)(=O)c2ccc(NCCN3C(=O)c4cccc5c(N(C)C)ccc(c45)C3=O)cc2)c(C)c1", "0.891 µM"],
  ["Cc1cc(C)c(NS(=O)(=O)c2ccc(NCCCCN3C(=O)c4cccc5c(N(C)C)ccc(c45)C3=O)cc2)c(C)c1", "8.91 µM"]
]}

----------
Molecular target: GPR120 (Homo sapiens, UniProt Q5NUL3)
Assay: BRET activity test (β-arrestin-2 recruitment, GPR120-YFP / β-arrestin-2-Rluc in HEK293 cells)
Assay type: cell-based
Set-up: host or cells: HEK293 (transfected with both plasmids)
Details: GPR120, β-arrestin-2 activity test; read-out: pEC50 BRET (converted)

{"columns": ["compound", "EC50 [nM]"],
 "data": [
  ["COc1ccc(S(=O)(=O)Nc2c(C)cc(C)cc2C)cc1 [GSK137647A, reference compound]", 178],
  ["Cc1cc(C)c(NS(=O)(=O)c2ccc(NCCCCN3C(=O)c4cccc5c(N(C)C)ccc(c45)C3=O)cc2)c(C)c1", 1780],
  ["Cc1cc(C)c(NS(=O)(=O)c2ccc(NCCCN3C(=O)c4cccc5c(N(C)C)ccc(c45)C3=O)cc2)c(C)c1", 562],
  ["Cc1cc(C)c(NS(=O)(=O)c2ccc(NCCN3C(=O)c4cccc5c(N(C)C)ccc(c45)C3=O)cc2)c(C)c1", 427]
]}

----------
Attribute: melting point

{"columns": ["structure as smiles", "melting point"],
 "data": [
  ["Cc1cc(C)c(NS(=O)(=O)c2ccc(-c3ccc(F)cc3)cc2)c(C)c1", "214 to 215 °C"],
  ["Cc1cc(C)c(NS(=O)(=O)c2ccc(-c3ccc(OC(F)(F)F)cc3)cc2)c(C)c1", "169 to 170 °C"],
  ["COc1cc(NS(=O)(=O)c2ccc(-c3ccc(OC(F)(F)F)cc3)cc2)cc(OC)c1OC", "136 to 137 °C"],
  ["Cc1cc(C)c(NS(=O)(=O)c2ccc(-c3ccc(Cl)cc3)cc2)c(C)c1", "214 to 215 °C"],
  ["Cc1cc(C)c(NS(=O)(=O)c2ccc(OCc3ccc(Br)cc3)cc2)c(C)c1", "161 to 162 °C"],
  ["Cc1ccc(-c2ccc(S(=O)(=O)Nc3c(C)cc(C)cc3C)cc2)cc1", "195 to 196 °C"],
  ["Cc1cc(C)c(NS(=O)(=O)c2ccc(OCc3c(F)cccc3C(F)(F)F)cc2)c(C)c1", "154 to 155 °C"],
  ["Cc1cc(C)c(NS(=O)(=O)c2ccc(-c3ccc(N)c(F)c3)cc2)c(C)c1", "176 to 177 °C"],
  ["Cc1cc(C)c(NS(=O)(=O)c2ccc(NCCCN3C(=O)c4cccc5c(N(C)C)ccc(c45)C3=O)cc2)c(C)c1", "103 to 104 °C"],
  ["O=S(=O)(Nc1ccc(F)cc1)c1ccc(-c2ccc(OC(F)(F)F)cc2)cc1", "148 to 149 °C"],
  ["O=S(=O)(Nc1ccc(Cl)cc1Cl)c1ccc(-c2ccc3ccccc3c2)cc1", "175 to 176 °C"],
  ["Cc1cc(C)c(NS(=O)(=O)c2ccc(-c3ccc(Br)cc3)cc2)c(C)c1", "176 to 177 °C"]
]}
